Tested on: RAW-Dual (murine macrophage reporter line)
Assay: NF-kB reporter (SEAP) activity fold change vs agonist alone; higher = enhanced NF-kB activity
Settings: modulator concentration 10 µM; agonist: CpG ODN 1826 0.5 ug/mL
Param threshold (1) applies to NF-kB reporter; output met when value >= threshold, not met when value < threshold.

These solved cases illustrate the format of a correct answer.
Item "CCS(=O)(=O)N1CCC(Oc2cc(C)nc(C)n2)CC1" with NF-kB reporter of 1 or above?
met

Subsequent entry: "O=C1c2ccccc2C(=O)C1c1ccccn1"
not met

What about "Cl.O=S(=O)(c1cccc2cnccc12)N1CCCNCC1" ?
not met

Now give it for C#CCC(Cc1cnc2nc(N)nc(N)c2n1)c1ccc(C(=O)N[C@@H](CCC(=O)O)C(=O)O)cc1 (some centres undefined) too.
not met

Then what about the compound CCC1(O)C(=O)OCc2c1cc1n(c2=O)Cc2cc3cc(O)ccc3nc2-1 (centres undefined) ?
met

***
Does "COC(=O)c1cc(OC)c(=O)c2c(OC)c(OC)ccc2c1" have a reported NF-kB reporter of at least 1?
met

Input "CCOc1ccc(N2CCN(CC(=O)O)C2=O)cc1"
met

Same thing, different compound: CCCCCCOc1ccc(N2C(=O)CC(SC(=Nc3ccccc3)Nc3ccccc3)C2=O)cc1 (centres undefined)
not met

Next entry: COc1cc2nc(N3CCN(C(=O)C4CCCO4)CC3)nc(N)c2cc1OC.Cl.O.O (centres undefined)
not met

# repeat for "Cc1ccc(-n2nc(C(C)(C)C)cc2NC(=O)NCc2cc(F)ccc2Oc2ccc3c(cnn3CCO)c2)cc1"
not met

For "COc1ccc(CCn2c(C)c(C)n3c4c(=O)n(CCC(C)C)c(=O)n(C)c4nc23)cc1OC" then?
not met

Try this compound too: CC(C)(C)SCC(O)Cn1c2ccc(Br)cc2c2cc(Br)ccc21 (centres undefined)
not met

One more compound: "CN1CCC(=C2c3ccccc3CCn3c(C=O)cnc32)CC1"
not met

Also COC(CNC(=O)COc1cccc2c1OC(C)(C)C2)c1ccc(Cl)s1 (centres undefined) ?
not met

Note, next up: "O=C(NCCNC(=O)c1ccccc1Cl)c1ccc(NC(=O)C2CC2)cc1"
not met

Then COc1ccccc1N1CCN(CC(O)COc2cccc3ccccc23)CC1 (centres undefined) ?
not met

Consider next the compound CCN1CCN(c2nc3c(c(=O)[nH]c(=O)n3C)n2CC(O)COc2cc(C)ccc2C(C)C)CC1 (centres undefined) in the same way.
met
